# Test system: CCRF-CEM
# protocolNotes: Cytotoxicity against human CEM cells assessed as reduction in cell viability incubated for 5 days by Cell-titer 96 aqueous one solution cell proliferation assay
# Assay type: cell-based
# particulars: ccrf-cem, 120 h
readoutKind: CC50

Given the entry CC(C)OC(=O)CCc1ccccc1O[P@@](=O)(N[C@@H](C)C(=O)OC(C)C)OC[C@H]1O[C@@H](n2cnc3c(N)nc(N)nc32)[C@](C)(O)[C@H]1O , report its measured CC50.
> 100 µM

Which value of CC50 has been reported for CCOC(=O)[C@H](C)N[P@@](=O)(OC[C@H]1O[C@@H](n2cnc3c(N)nc(N)nc32)[C@](C)(O)[C@H]1O)Oc1ccccc1CCC(=O)OC(C)C in the records?
> 100 µM

Please give the measured CC50 for this compound: CCOC(=O)CCc1ccccc1OP(=O)(N[C@@H](C)C(=O)OCC)OC[C@H]1O[C@@H](n2cnc3c(N)nc(N)nc32)[C@]2(C)OC(=O)O[C@@H]12 (some centres undefined)
> 100 µM

Request the reported CC50 associated with CCOC(=O)CCc1ccccc1O[P@](=O)(N[C@@H](C)C(=O)OC(C)C)OC[C@H]1O[C@@H](n2cnc3c(N)nc(N)nc32)[C@](C)(O)[C@H]1O
> 100 µM

// query CC50 value for entry CCOC(=O)[C@H](C)NP(=O)(OC[C@H]1O[C@@H](n2cnc3c(N)nc(N)nc32)[C@](C)(O)[C@@H]1O)Oc1ccccc1 (some centres undefined)
> 100 µM

Item CCOC(=O)CCc1ccccc1OP(=O)(N[C@@H](C)C(=O)OCC)OC[C@H]1O[C@@H](n2cnc3c(N)nc(N)nc32)[C@](C)(O)[C@H]1O (mixture of isomers) has what recorded CC50?
> 100 µM

What does the record list as CC50 for CC(C)OC(=O)CCc1ccccc1O[P@](=O)(N[C@@H](C)C(=O)OC(C)C)OC[C@H]1O[C@@H](n2cnc3c(N)nc(N)nc32)[C@](C)(O)[C@H]1O ?
40 µM

Quick one: CC50 of COc1nc(N)nc2c1ncn2[C@@H]1O[C@H](COP(=O)(N[C@@H](C)C(=O)OCC(C)(C)C)Oc2cccc3ccccc23)[C@@H](O)[C@@]1(C)O (some centres undefined) ?
8.7 µM

Quick check: CC50 of C[C@@]1(O)[C@H](O)[C@@H](CO)O[C@H]1n1cnc2c(N)nc(N)nc21 ?
> 100 µM
